The measured values listed here are drawn from patent US20240417458A1.

Biological target: T1, soluble human RGMc (human, UniProt Q6ZVN8 36-400)
T1 construct: also called huRGMc; soluble hRGMc
T1 sequence: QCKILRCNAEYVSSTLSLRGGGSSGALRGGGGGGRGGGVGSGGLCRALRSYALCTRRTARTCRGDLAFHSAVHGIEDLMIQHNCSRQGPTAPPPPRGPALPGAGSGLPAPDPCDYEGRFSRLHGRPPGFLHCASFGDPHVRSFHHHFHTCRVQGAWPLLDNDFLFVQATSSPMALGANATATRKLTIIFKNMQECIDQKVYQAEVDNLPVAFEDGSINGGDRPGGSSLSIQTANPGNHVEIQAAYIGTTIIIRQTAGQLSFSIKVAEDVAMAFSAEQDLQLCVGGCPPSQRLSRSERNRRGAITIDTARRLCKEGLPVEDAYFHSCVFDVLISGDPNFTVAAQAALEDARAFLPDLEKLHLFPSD
Test: SPR (BIAcore);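 note: Anti-HJV antibodies, binding affinity to soluble human RGMc measured by BIAcore surface plasmon resonance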
RECORDED ENDPOINT: kon (M⁻¹ s⁻¹)
Dear colleague, please return just the value in M⁻¹ s⁻¹, with no unit written.

Query: So what's the measured kon for this one? hHA-005 (antibody, human IgG1, kappa, L234A L235A, V domains shown, hIgG1 L234A, L235A, kappa) VH: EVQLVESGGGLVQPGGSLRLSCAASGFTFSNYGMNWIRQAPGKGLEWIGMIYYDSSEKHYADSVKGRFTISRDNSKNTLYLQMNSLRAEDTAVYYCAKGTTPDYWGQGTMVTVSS VL: DVVLTQSPLSLPVTLGQPASISCRSSQSLEESDGYTFLEWFQQRPGQSPRLLIYDVSERFSGVPDRFSGSGSGTDFTLKISRVEAEDVGVYYCFQATYDPLTFGQGTKLEIKR
Reply: 4.15e+07
